pKi: −log10 of the molar value.
Reported pKi for target or system Furin (Homo sapiens), by entry.

{"Substance": "H-TPAERRRKKRG-OH", "pKi": "< 7.00"}
{"Substance": "H-TARERRRKKRG-OH", "pKi": "< 7.00"}
{"Substance": "H-GGGGGGTPQRARRRKKRW-OH", "pKi": 7.06}
{"Substance": "H-TPRARRRKKRP-OH", "pKi": "< 7.00"}

-- ask Data request, read-out pKi, for `H-TPQRWRRRKKRG-OH`
-- reply < 7.00

-- ask What about this substance? `H-TPQRGRRRKKRG-OH`
-- reply < 7.00

-- ask What about this substance? `H-GAGAGATPRARRRKKRT-OH`
-- reply 7.33

-- ask What about this substance? `H-TPQRIRRRKKRG-OH`
-- reply < 7.00

-- ask What about this substance? `H-GGGTPRARRRKKRY-OH`
-- reply 7.38

Just for reference, ChEMBL document CHEMBL1156471 is where these values come from.
